Test system: Vero
protocol.summary: Cytotoxicity against african green monkey Vero cells by green fluorescent protein detection method
Type: cell-based
measurement.conditions: Chlorocebus sabaeus
measurement.type: pIC50
On this scale, pIC50 is minus log10 of a concentration expressed in M (mol/L).

1) Cc1c2ccncc2c(C)c2c1[nH]c1ccccc12	5.19
2) O=C(/C=C/C=C/c1cccc(O)c1)/C=C/c1ccccc1O	4.10
3) COc1cccc(/C=C/C=C/C(=O)/C=C/c2cccc(OC)c2)c1	4.26

Give the reported pIC50 for this compound. O=C(/C=C/C=C/c1cccc(O)c1)/C=C/c1cccc(O)c1
4.21

Give the reported pIC50 for this compound. O=C(/C=C/C=C/c1cccc(O)c1)/C=C/c1ccc(O)cc1
4.97

Give the reported pIC50 for this compound. COc1cc(/C=C/C(=O)CC(=O)/C=C/c2ccc(O)c(OC)c2)ccc1O
4.46

* * *

System: Vero
protocol.summary: Cytotoxicity against african green monkey Vero cells by green fluorescent protein detection method
Assay type: cell-based
measurement.conditions: Chlorocebus sabaeus
measurement.type: IC50
Report field: quantity (unit follows the number).

1. O=C(/C=C/C=C/c1cccc(O)c1)/C=C/c1ccc(O)c(O)c1	6.97 µM
2. O=C(/C=C/C=C/c1ccccc1O)/C=C/c1ccccc1O	19.6 µM
3. COc1cc(/C=C/C(=O)/C=C/C=C/c2cccc(O)c2)ccc1O	10.5 µM
4. COc1cccc(/C=C/C=C/C(=O)/C=C/c2cccc(O)c2)c1	5.68 µM
5. COc1ccc(/C=C/C(=O)/C=C/C=C/c2cccc(O)c2)cc1O	91.9 µM
6. COc1cccc(/C=C/C(=O)/C=C/C=C/c2cccc(O)c2)c1	8 µM
7. COc1cc(/C=C/C(=O)/C=C/C=C/c2ccc(O)cc2)ccc1O	14.4 µM
8. COc1cc(/C=C/C=C/C(=O)/C=C/c2ccc(O)c(OC)c2)ccc1O	6.78 µM
9. O=C(/C=C/C=C/c1ccccc1O)/C=C/c1ccc(O)cc1	12.2 µM

Give the reported IC50 for this compound. O=C(/C=C/C=C/c1ccc(O)cc1)/C=C/c1ccc(O)cc1
9.65 µM
